Provide the reported growth inhibition of each item.
- test-protocol: inhibition of 3D7 malaria parasite growth – strain 3D7 (AID 2306);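 also: 0% = DMSO wells and 100% = chloroquine plus artemisinin control wells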
- run-conditions: P. falciparum 3D7 erythrocytic growth, LDH absorbance, 72 h; at 2 µM; active compounds read high
Use % as the unit, but write only the number.

Please look at this compound and report its growth inhibition: `COc1ccc(N2CCN(c3nc(Nc4ccc(NC(C)=O)cc4)nc(N4CCCC4)n3)CC2)cc1`
91

Please look at this compound and report its growth inhibition: `CN1C(C)(C)CC(NC(=O)c2ccc(-c3cc4cc(Cl)c(Cl)cc4[nH]3)o2)CC1(C)C`
101

Please look at this compound and report its growth inhibition: NC1=NC(Cc2ccccc2)N(c2ccc(Cl)cc2)C(N)=N1 (configuration not stated)
93

Please look at this compound and report its growth inhibition: CNC(=O)c1cnc(Nc2ccc(OCC(O)CN(C)C)cc2)nc1Nc1cccc(OC(C)C)c1 (configuration not stated)
103

Please look at this compound and report its growth inhibition: `COc1cc(CNC[C@@H](O)[C@H](Cc2ccccc2)NC(=O)c2cc(OC(C)C)cc(N3CCCCS3(=O)=O)c2)cc(OC)c1`
100

Please look at this compound and report its growth inhibition: `CN(C)c1cc(NC(=O)Nc2ccc(SC(F)(F)F)cc2)c2ccccc2n1`
100

Please look at this compound and report its growth inhibition: `CCOc1ccc(C(=O)Nc2cc(Br)c3c(c2)CNCC3)cc1C#N`
97

Please look at this compound and report its growth inhibition: `CCc1cn(CCS(C)(=O)=O)c2ccc(C(=O)N[C@@H](Cc3ccccc3)[C@H](O)CNC(C)(C)CCCC(C)C)cc12`
87

Please look at this compound and report its growth inhibition: Nc1ncnc2c1ncn2C(CO)Cc1ccc(O)cc1 (configuration not stated)
93

Please look at this compound and report its growth inhibition: `Oc1ccc(CCNc2nc(NCc3ccccc3Oc3ccc(C(F)(F)F)cc3)nc(N3CCNCC3)n2)cc1`
86

Please look at this compound and report its growth inhibition: `Cc1ccc(S(=O)(=O)N2CCN(C(=O)c3cc(-c4ccccc4)n[nH]3)CC2)cc1`
91

Please look at this compound and report its growth inhibition: `CN1CCC(NCc2ccc(-c3cccc(S(=O)(=O)NCCc4ccccn4)c3)cc2)CC1`
84

Please look at this compound and report its growth inhibition: `CC1(C)N=C(N)N=C(N)N1OCCCOc1ccccc1N`
93

Please look at this compound and report its growth inhibition: `c1ccc2c(CNCCCCCCNCc3c(OCC4CC4)ccc4ccccc34)c(OCC3CC3)ccc2c1`
93

Please look at this compound and report its growth inhibition: `O=C(NCCCCCN1CCC(c2c[nH]c3ccccc23)CC1)Nc1cccc(Cl)c1`
86

Please look at this compound and report its growth inhibition: `Cc1cccc2[nH]c(-c3cccc(-c4cccc(CNCc5ccc(S(C)(=O)=O)cc5)c4)c3)nc12`
100

Please look at this compound and report its growth inhibition: CC(C)(C)CCOC(=O)N1CCc2c(cc(O)c(O)c2Cl)C(c2ccc(O)cc2)C1 (configuration not stated)
97

Please look at this compound and report its growth inhibition: `COc1ccccc1COc1c(C)nc(N)nc1N`
98

Please look at this compound and report its growth inhibition: `CN(C)c1ccc(N=C2N=C(Nc3ccc(N(C)C)cc3)c3ccccc32)cc1`
93

Please look at this compound and report its growth inhibition: COc1ccc(CN2CCC(N3CCc4cc(NC(=O)c5cc(C)on5)ccc43)C2)cc1Cl (configuration not stated)
94

Please look at this compound and report its growth inhibition: `Cc1cccc2[nH]c(-c3ccc(-c4ccc(CNCCN5CCNCC5)cc4)s3)nc12`
88

Please look at this compound and report its growth inhibition: `CC(C)CCNc1nc(NCCCc2ccccc2)c2cc(O)ccc2n1`
101

Please look at this compound and report its growth inhibition: `O=C(Nc1ccccc1)c1ccc(-c2cc3ccncc3cc2OC2CCNCC2)s1`
100

Please look at this compound and report its growth inhibition: `Clc1cccc(C=NNc2ccnc3ccccc23)c1`
102

Please look at this compound and report its growth inhibition: `Cc1onc(-c2ccccc2Cl)c1C(=O)Nc1cc(Cl)c(Cl)cc1Cl`
90

Please look at this compound and report its growth inhibition: `Nc1nccc2ccc(-c3ccsc3)cc12`
100

Please look at this compound and report its growth inhibition: `Cn1ccnc1Sc1ncccc1[N+](=O)[O-]`
96

Please look at this compound and report its growth inhibition: `CC1(C)N=C(N)N=C(N)N1c1ccc(Br)cc1`
94

Please look at this compound and report its growth inhibition: `COc1ccc(-c2csc3nc(C)nc(Cl)c23)cc1OC`
97

Please look at this compound and report its growth inhibition: `O=C(/C=C/c1ccc(Cl)c(Cl)c1)NCCCCCN1CCC(c2[nH]nc(-c3ccccc3)c2Br)CC1`
95

Please look at this compound and report its growth inhibition: `CCOc1ccc2c(NN=Cc3ccccn3)cc(C)nc2c1`
98

Please look at this compound and report its growth inhibition: `Cc1cc(-c2ccc(NC(=O)c3coc4ccc(N5C[C@@H](C)N(C)[C@@H](C)C5)cc34)cc2C)cc(C)n1`
94

Please look at this compound and report its growth inhibition: `Cc1[nH]c(C)c(-c2ccc(-c3cccc(Cl)c3)nc2)c(=O)c1Br`
96

Please look at this compound and report its growth inhibition: `CCOc1ccccc1CNc1nccc(NCCc2cn(C)c3ccccc23)n1`
98

Please look at this compound and report its growth inhibition: `CCCCCCN1CCC(NCc2cccc(C(F)(F)F)c2)CC1`
103

Please look at this compound and report its growth inhibition: `CCOC(=O)c1[nH]c(-c2ccccc2)nc1-n1nc(C)cc1C`
92

Please look at this compound and report its growth inhibition: `CCOc1ccc(-c2nonc2NC(=O)c2ccccc2)cc1OCC`
99

Please look at this compound and report its growth inhibition: COc1ccc(S(=O)(=O)NC2CCN(c3ccnc4cc(Cl)ccc34)C2)cc1 (configuration not stated)
100

Please look at this compound and report its growth inhibition: O=C(c1cccs1)N1N=C(c2cccs2)CC1c1cccc([N+](=O)[O-])c1 (configuration not stated)
95

Please look at this compound and report its growth inhibition: `COc1ccc2c(NN=C(C)c3ccccn3)cc(C)nc2c1`
102

Please look at this compound and report its growth inhibition: COc1ccc2nccc(NCC3(O)CCC(NCc4ccc5c(n4)NC(=O)CS5)CC3)c2n1 (configuration not stated)
100

Please look at this compound and report its growth inhibition: `Cc1ccc(CNC(=O)[C@H](Cc2ccccc2)Nc2cc(C)nc(NCCc3ccc(F)cc3)n2)cc1`
98
